experimentalConditions: in n-butanol, 313.15 K
metric: solubility (mole fraction)
Please reply with the value in numeric form only.

For this molecule ( CC(C)(C)C(=O)C(Oc1ccc(Cl)cc1)n1ccnc1 (stereo unspecified) ), measured solubility (mole fraction) is 0.243

====

experimentalConditions: in n-pentanol, 318.15 K
metric: solubility (mole fraction)

For this compound ( CC(C)(C)C(=O)C(Oc1ccc(Cl)cc1)n1ccnc1 (stereo unspecified) ), measured solubility (mole fraction) is 0.273

====

experimentalConditions: in n-heptanol, 298.15 K
metric: solubility (mole fraction)
Please reply with the value in numeric form only.

For this compound ( CC(C)(C)C(=O)C(Oc1ccc(Cl)cc1)n1ccnc1 (stereo unspecified) ), measured solubility (mole fraction) is 0.131

====

experimentalConditions: in n-heptanol, 288.15 K
metric: solubility (mole fraction)
Please reply with the value in numeric form only.

For this compound ( CC(C)(C)C(=O)C(Oc1ccc(Cl)cc1)n1ccnc1 (stereo unspecified) ), measured solubility (mole fraction) is 0.0937

====

experimentalConditions: in n-butanol, 298.15 K
metric: solubility (mole fraction)
Please reply with the value in numeric form only.

For this molecule ( CC(C)(C)C(=O)C(Oc1ccc(Cl)cc1)n1ccnc1 (stereo unspecified) ), measured solubility (mole fraction) is 0.156

====

experimentalConditions: in n-hexanol, 318.15 K
metric: solubility (mole fraction)

For this compound ( CC(C)(C)C(=O)C(Oc1ccc(Cl)cc1)n1ccnc1 (stereo unspecified) ), measured solubility (mole fraction) is 0.263

====

experimentalConditions: in n-heptanol, 313.15 K
metric: solubility (mole fraction)
Please reply with the value in numeric form only.

For this compound ( CC(C)(C)C(=O)C(Oc1ccc(Cl)cc1)n1ccnc1 (stereo unspecified) ), measured solubility (mole fraction) is 0.21

====

experimentalConditions: in n-hexanol, 298.15 K
metric: solubility (mole fraction)
Please reply with the value in numeric form only.

For this compound ( CC(C)(C)C(=O)C(Oc1ccc(Cl)cc1)n1ccnc1 (stereo unspecified) ), measured solubility (mole fraction) is 0.141

====

experimentalConditions: in n-propanol, 313.15 K
metric: solubility (mole fraction)
Please reply with the value in numeric form only.

For this compound ( CC(C)(C)C(=O)C(Oc1ccc(Cl)cc1)n1ccnc1 (stereo unspecified) ), measured solubility (mole fraction) is 0.254

====

experimentalConditions: in n-heptanol, 293.15 K
metric: solubility (mole fraction)
Please reply with the value in numeric form only.

For this compound ( CC(C)(C)C(=O)C(Oc1ccc(Cl)cc1)n1ccnc1 (stereo unspecified) ), measured solubility (mole fraction) is 0.111

====

experimentalConditions: in n-heptanol, 278.15 K
metric: solubility (mole fraction)
Please reply with the value in numeric form only.

For this compound ( CC(C)(C)C(=O)C(Oc1ccc(Cl)cc1)n1ccnc1 (stereo unspecified) ), measured solubility (mole fraction) is 0.0686

====

experimentalConditions: in n-pentanol, 298.15 K
metric: solubility (mole fraction)
Please reply with the value in numeric form only.

For this compound ( CC(C)(C)C(=O)C(Oc1ccc(Cl)cc1)n1ccnc1 (stereo unspecified) ), measured solubility (mole fraction) is 0.15

====

experimentalConditions: in n-hexanol, 303.15 K
metric: solubility (mole fraction)

For this molecule ( CC(C)(C)C(=O)C(Oc1ccc(Cl)cc1)n1ccnc1 (stereo unspecified) ), measured solubility (mole fraction) is 0.164

====

experimentalConditions: in ethanol, 318.15 K
metric: solubility (mole fraction)
Please reply with the value in numeric form only.

For this molecule ( CC(C)(C)C(=O)C(Oc1ccc(Cl)cc1)n1ccnc1 (stereo unspecified) ), measured solubility (mole fraction) is 0.287
